# Target or system: T1, Recombinant human CD4 (R&D Systems, Cat. 10327-CD) (human, UniProt P01730 26-390, limits assumed)
# T1 construct: Bought reagent; also called huCD4
# Measurement protocol: BLI Octet, non-clonal supernatant on AMC sensor, 100 nM human CD4;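 note: hybridoma supernatants diluted 1:3, antibodies captured on AMC biosensors, association and dissociation with CD4 followed, curves smoothed and fit locally with 1:1 binding model for single-point kinetics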
Endpoint name: Response
Reply with the value as a number alone.

Below: 2 binders and their reported Response.
Binder	Endpoint name	Endpoint value
75110_01J09A (antibody, V domains shown, Tested as non-clonal AlivaMab Mouse Kappa hybridoma supernatant, captured by anti-mouse IgG Fc sensor) VH: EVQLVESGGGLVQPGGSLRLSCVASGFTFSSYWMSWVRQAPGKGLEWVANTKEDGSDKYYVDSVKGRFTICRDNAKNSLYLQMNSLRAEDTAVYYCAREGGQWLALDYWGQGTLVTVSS VL: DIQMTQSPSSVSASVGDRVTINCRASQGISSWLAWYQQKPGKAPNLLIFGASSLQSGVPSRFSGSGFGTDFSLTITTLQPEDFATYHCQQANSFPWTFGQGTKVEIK	Response	0.28
75110_03C01A (antibody, V domains shown, Tested as non-clonal AlivaMab Mouse Kappa hybridoma supernatant, captured by anti-mouse IgG Fc sensor) VH: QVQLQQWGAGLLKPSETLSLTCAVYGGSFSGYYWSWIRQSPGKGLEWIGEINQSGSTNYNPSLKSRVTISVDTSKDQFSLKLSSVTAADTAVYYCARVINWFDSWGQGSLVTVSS VL: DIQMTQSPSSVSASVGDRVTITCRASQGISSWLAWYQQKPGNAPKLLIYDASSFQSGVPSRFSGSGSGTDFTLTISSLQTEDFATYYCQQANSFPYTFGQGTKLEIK	Response	0.09

Note: attention shifts to another entry.
Quote Response reported for 75110_13C13A (antibody, V domains shown, Tested as non-clonal AlivaMab Mouse Kappa hybridoma supernatant, captured by anti-mouse IgG Fc sensor) VH: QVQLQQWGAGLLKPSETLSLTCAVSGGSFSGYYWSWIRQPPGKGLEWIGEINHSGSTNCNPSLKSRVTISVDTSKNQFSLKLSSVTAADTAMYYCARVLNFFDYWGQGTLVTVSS VL: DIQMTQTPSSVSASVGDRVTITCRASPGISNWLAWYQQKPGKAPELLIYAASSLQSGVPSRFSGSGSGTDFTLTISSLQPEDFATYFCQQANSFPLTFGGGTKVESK please. 0.19
